Just for reference, ChEMBL document CHEMBL2157873 is where these values come from.

species: Homo sapiens; test: Selectivity ratio of IC50 for human recombinant FAAH to IC50 for human MAGL
Ratio IC50 values, listed per item
Note: the reply should be a number with no unit written.

[
  {
    "line-notation": "O=C(N1CCN(Cc2ccc(-c3ccccc3)cc2)CC1)n1nnc2ccccc21",
    "quantity-name": "Ratio IC50",
    "measured-result": 0.3
  }
]

Shifting focus to the compound that follows.
Challenge: Could you share which Ratio IC50 value was measured for "O=C(N1CCN(c2ccc([N+](=O)[O-])cc2)CC1)n1nnc2ccccc21" ?
Response given: 1.7

###

organism: Homo sapiens; test: Selectivity ratio of IC50 for human recombinant FAAH to IC50 for human MAGL
quantity-name: Ratio IC50
Note: the reply should be a number with no unit written.

Use the examples below as a reference point.
[
  {
    "line-notation": "COc1ccc(N2CCN(C(=O)n3nnc4ccccc43)CC2)cc1",
    "Ratio IC50": 0.47
  },
  {
    "line-notation": "CC(C)NC(=O)c1cc(N2CCN(C(=O)n3nnc4ccccc43)CC2)ccc1[N+](=O)[O-]",
    "Ratio IC50": 8.9
  },
  {
    "line-notation": "O=C(N1CCN(Cc2ccc(Cl)cc2)CC1)n1nnc2ccccc21",
    "Ratio IC50": 1.5
  },
  {
    "line-notation": "O=C(N1CCN(c2ccccc2F)CC1)n1nnc2ccccc21",
    "Ratio IC50": 0.44
  }
]

Challenge: Could you share which Ratio IC50 value was measured for "O=C(N1CCN(C/C=C/c2ccccc2)CC1)n1nnc2ccccc21" ?
Response given: 0.8

Challenge: Field entry: "O=C(N1CCN(c2ccccc2[N+](=O)[O-])CC1)n1nnc2ccccc21"
Response given: 0.08
